test: Plate-based fluorescence (RiboGreen) assay: nucleic acid cargo content and encapsulation efficiency of LNPs; type: physicochemical; details: LNP, Formulation F4, N/P 6
For each record, write down the corresponding EE (%) N/P:6.
Answers are plain numbers, in %.

Worked set:
1. CCCCC/C=C\CCOC(=O)CCCCCC(=O)OCC(COC(=O)CCCCCC(=O)OCC/C=C\CCCCC)(COC(=O)CCCCCC(=O)OCC/C=C\CCCCC)COC(=O)CCC(CCCCCC)OC(=O)NCCN1CCCC1 (stereo not drawn) [Compound 7]; 98
2. CCCCC/C=C\C/C=C\CCCCCCCC(=O)OCC(COC(=O)CCCCCCC/C=C\C/C=C\CCCCC)(COC(=O)CCC(CCCCCC)OC(=O)NCCN1CCCC1)COC(=O)CC12CC3CC(CC(C3)C1)C2 (stereo not drawn) [Compound 5]; 99

// switching to the query compound
Can you look up the measured EE (%) N/P:6 of CCCCCCCC/C=C\CCCCCCCC(=O)OCC(COC(=O)CCCCCCC/C=C\CCCCCCCC)(COC(=O)CCC(CCCCCC)OC(=O)NCCN1CCCC1)COC(=O)CCC(OCCCCCCCC)OCCCCCCCC (stereo not drawn) [Compound 4] for me?
100

###

experiment: Dynamic light scattering: LNP particle size and PDI; type: physicochemical; conditions: LNP, Formulation F3, N/P 6
Please go through the items and note down their PDI N/P:6.
One number for each entry.

Sample answers from the record:
1) CCCCCCC(CCC(=O)OCC(COC(=O)CCCCCCOC(=O)C(CCCC)CCCCCC)(COC(=O)CCCCCCOC(=O)C(CCCC)CCCCCC)COC(=O)CCCCCCOC(=O)C(CCCC)CCCCCC)OC(=O)NCCN1CCCC1 (centres unmarked); 0.03
2) CCCCCCCC/C=C\CCCCCCCC(=O)OCC(COC(=O)CCCCCCC/C=C\CCCCCCCC)(COC(=O)CCC(CCCCCC)OC(=O)NCCN1CCCC1)COC(=O)CC12CC3CC(CC(C3)C1)C2 (centres unmarked); 0.07

Could you tell me PDI N/P:6 for each of these compounds? They are listed below.
1. CCCCC/C=C\CCOC(=O)CCCCCC(=O)OCC(COC(=O)CCCCCC(=O)OCC/C=C\CCCCC)(COC(=O)CCCCCC(=O)OCC/C=C\CCCCC)COC(=O)CCC(CCCCCC)OC(=O)NCCN1CCCC1 (centres unmarked)
2. CCCCCCCC/C=C\CCCCCCCC(=O)OCC(COC(=O)CCCCCCC/C=C\CCCCCCCC)(COC(=O)CCCCCCC/C=C\CCCCCCCC)COC(=O)CCC(CCCCCC)OC(=O)NCCN1CCCC1 (centres unmarked)
3. CCCCCCCC/C=C\CCCCCCCC(=O)OCC(COC(=O)CCCCCCC/C=C\CCCCCCCC)(COC(=O)CCC(CCCCCC)OC(=O)NCCN1CCCC1)COC(=O)CCC(OCCCCCCCC)OCCCCCCCC (centres unmarked)

1. 0.09
2. 0.051
3. 0.08

###

experiment: Dynamic light scattering: LNP particle size and PDI; assay type: physicochemical; conditions: LNP, Formulation F1, N/P 6
Think of 0.08 as a floor: if PDI N/P:6 stands on it or above, it is YES; beneath it, NO.

1) CCCCCCCCOC(CCC(=O)OCC(COC(=O)CCCCCCOC(=O)C(CCCC)CCCCCC)(COC(=O)CCC(CCCCCC)OC(=O)NCCN1CCCC1)COC(=O)CCC(OCCCCCCCC)OCCCCCCCC)OCCCCCCCC (centres unmarked); NO
2) CCCCC/C=C\CCOC(=O)CCCCCC(=O)OCC(COC(=O)CCCCCC(=O)OCC/C=C\CCCCC)(COC(=O)CCC(CCCCCC)OC(=O)NCCN1CCCC1)COC(=O)CCC(OCCCCCCCC)OCCCCCCCC (centres unmarked); NO
3) CCCCC/C=C\CCOC(=O)CCCCCCC(=O)OCC(COC(=O)CCCCCCC(=O)OCC/C=C\CCCCC)(COC(=O)CCC(CCCCCC)OC(=O)NCCN1CCCC1)COC(=O)CC12CC3CC(CC(C3)C1)C2 (centres unmarked); YES

Determine whether this compound has PDI N/P:6 no lower than 0.08: CCCCC/C=C\CCOC(=O)CCCCC(=O)OCC(COC(=O)CCCCC(=O)OCC/C=C\CCCCC)(COC(=O)CCC(CCCCCC)OC(=O)NCCN1CCCC1)COC(=O)CC12CC3CC(CC(C3)C1)C2 (centres unmarked)
NO

Moving on to the next compound: CCCCCCCC/C=C\CCCCCCCC(=O)OCC(COC(=O)CCCCCCC/C=C\CCCCCCCC)(COC(=O)CCCCCCC/C=C\CCCCCCCC)COC(=O)CCC(CCCCCC)OC(=O)NCCN1CCCC1 (centres unmarked)
NO

Next: CCCCC/C=C\CCOC(=O)CCCCCCC(=O)OCC(COC(=O)CCCCCCC(=O)OCC/C=C\CCCCC)(COC(=O)CCCCCCC(=O)OCC/C=C\CCCCC)COC(=O)CCC(CCCCCC)OC(=O)NCCN1CCCC1 (centres unmarked)
YES

Queued: CCCCC/C=C\CCOC(=O)CCCCCC(=O)OCC(COC(=O)CCCCCCOC(=O)C(CCCC)CCCCCC)(COC(=O)CCCCCC(=O)OCC/C=C\CCCCC)COC(=O)CCC(CCCCCC)OC(=O)NCCN1CCCC1 (centres unmarked)
YES

Same again, this time with CCCCC/C=C\C/C=C\CCCCCCCC(=O)OCC(COC(=O)CCCCCCC/C=C\C/C=C\CCCCC)(COC(=O)CCC(CCCCCC)OC(=O)NCCN1CCCC1)COC(=O)CC12CC3CC(CC(C3)C1)C2 (centres unmarked)
YES

Could you do the same for CCCCC/C=C\C/C=C\CCCCCCCC(=O)OCC(COC(=O)CCCCCCC/C=C\C/C=C\CCCCC)(COC(=O)CCC(CCCCCC)OC(=O)NCCN1CCCC1)COC(=O)CCC(OCCCCCCCC)OCCCCCCCC (centres unmarked) , please?
YES

###

system: mouse organs; assay: In vivo activity screening in mice: organ mean total flux (p/s) of luciferase activity after injection of F2 LNP pools (Table 6, FIG. 7A-7C); conditions: Mouse 14, dose 0.5 mg/kg, luciferase mRNA
Marks after values point to notes of the source that are not given here.
Give Organ Mean Total Flux Spleen for every item shown.

1. CCCCC/C=C\CCOC(=O)CCCCCC(=O)OCC(COC(=O)CCCCC)(COC(=O)CCCCCC(=O)OCC/C=C\CCCCC)COC(=O)CCC(CCCCCC)OC(=O)NCCN1CCCC1 (stereo not shown); 42.7 p/s (×10^6)
2. CCCCC/C=C\CCOC(=O)CCCCCC(=O)OCC(COC(=O)CCCCCC(=O)OCC/C=C\CCCCC)(COC(=O)CCC(CCCCCC)OC(=O)NCCN1CCCC1)COC(=O)CC12CC3CC(CC(C3)C1)C2 (stereo not shown); 10.4 p/s (×10^6)
3. CCCCC/C=C\CCOC(=O)CCCCCC(=O)OCC(COC(=O)CCCCCC(=O)OCC/C=C\CCCCC)(COC(=O)CCCCCC(=O)OCC/C=C\CCCCC)COC(=O)CCC(CCCCCC)OC(=O)NCCN1CCCC1 (stereo not shown); 11.8 p/s (×10^6)

# evaluate next
Which measured Organ Mean Total Flux Spleen value corresponds to CCCCC/C=C\CCOC(=O)CCCCC(=O)OCC(COC(=O)CCCCC(=O)OCC/C=C\CCCCC)(COC(=O)CCC(CCCCCC)OC(=O)NCCN1CCCC1)COC(=O)CC12CC3CC(CC(C3)C1)C2 (stereo not shown) ?
24.0 p/s (×10^6)

###

test system: mouse organs; assay: In vivo activity screening in mice: organ mean total flux (p/s) of luciferase activity after injection of F2 LNP pools (Table 6, FIG. 7A-7C); conditions: Mouse 1, dose 0.3 mg/kg, luciferase mRNA
Marks after values point to notes of the source that are not given here.
REPORTED PROPERTY: Organ Mean Total Flux Lung

Study these solved cases before continuing.
1. CCCCC/C=C\C/C=C\CCCCCCCC(=O)OCC(COC(=O)CCCCCCC/C=C\C/C=C\CCCCC)(COC(=O)CCCCCCC/C=C\C/C=C\CCCCC)COC(=O)CCC(CCCCCC)OC(=O)NCCN1CCCC1 (stereo not shown); 2.6 p/s (×10^6)
2. CCCCC/C=C\CCOC(=O)CCCCCC(=O)OCC(COC(=O)CCCCCC(=O)OCC/C=C\CCCCC)(COC(=O)CCCCCC(=O)OCC/C=C\CCCCC)COC(=O)CCC(CCCCCC)OC(=O)NCCN1CCCC1 (stereo not shown); 4.9 p/s (×10^6)
3. CCCCCCCC/C=C\CCCCCCCC(=O)OCC(COC(=O)CCCCCCC/C=C\CCCCCCCC)(COC(=O)CCC(CCCCCC)OC(=O)NCCN1CCCC1)COC(=O)CCC(OCCCCCCCC)OCCCCCCCC (stereo not shown); 39.9 p/s (×10^6)
4. CCCCC/C=C\CCOC(=O)CCCCCC(=O)OCC(COC(=O)CCCCCC(=O)OCC/C=C\CCCCC)(COC(=O)CCC(CCCCCC)OC(=O)NCCN1CCCC1)COC(=O)CC12CC3CC(CC(C3)C1)C2 (stereo not shown); 20.1 p/s (×10^6)

Batch of 6 molecules: report Organ Mean Total Flux Lung for each.
1. CCCCC/C=C\C/C=C\CCCCCCCCC(CCCCCCCC/C=C\C/C=C\CCCCC)OC(=O)CCCN(C)C [MC3, reference compound]
2. CCCCC/C=C\CCOC(=O)CCCCCCC(=O)OCC(COC(=O)CCCCCCC(=O)OCC/C=C\CCCCC)(COC(=O)CCC(CCCCCC)OC(=O)NCCN1CCCC1)COC(=O)CC12CC3CC(CC(C3)C1)C2 (stereo not shown)
3. CCCCCCCC/C=C\CCCCCCCC(=O)OCC(COC(=O)CCCCCCC/C=C\CCCCCCCC)(COC(=O)CCCCCCC/C=C\CCCCCCCC)COC(=O)CCC(CCCCCC)OC(=O)NCCN1CCCC1 (stereo not shown)
4. CCCCC/C=C\CCOC(=O)CCCCCC(=O)OCC(COC(=O)CCCCCC(=O)OCC/C=C\CCCCC)(COC(=O)CCC(CCCCCC)OC(=O)NCCN1CCCC1)COC(=O)CCC(OCCCCCCCC)OCCCCCCCC (stereo not shown)
5. CCCCC/C=C\CCOC(=O)CCCCC(=O)OCC(COC(=O)CCCCC(=O)OCC/C=C\CCCCC)(COC(=O)CCC(CCCCCC)OC(=O)NCCN1CCCC1)COC(=O)CC12CC3CC(CC(C3)C1)C2 (stereo not shown)
6. CCCCC/C=C\CCOC(=O)CCCCCCC(=O)OCC(COC(=O)CCCCCCC(=O)OCC/C=C\CCCCC)(COC(=O)CCCCCCC(=O)OCC/C=C\CCCCC)COC(=O)CCC(CCCCCC)OC(=O)NCCN1CCCC1 (stereo not shown)

1: 17.2 p/s (×10^6); 2: 27.7 p/s (×10^6); 3: 0.5 p/s (×10^6); 4: 29.8 p/s (×10^6); 5: 31.9 p/s (×10^6); 6: 41.5 p/s (×10^6)
